Assay: Quantitative High-Throughput drug screen in 47 multiple myeloma cell lines against the NCATS MIPE library collection: LP1_DSMZ cell viability assay (AID 1918982); also: nearly all actives have a fitted effect of over 35% in size
Conditions: LP1 myeloma viability, CellTiter-Glo ATP luminescence, 48 h; series mostly up to 45.8 µM
Records with an inconclusive call do not appear. Activity calls are given as the source filed them. Calls follow the shape of the dose curve; as a rule, active = well fitted cell-killing curve with a large enough effect; inconclusive = small, poorly fitted or top-dose-only effect, or effect the other way; inactive = no such curve, though single readings can be large or run the other way.
Outcomes: active, inactive

{"MOL_SMILES": "CC(C)c1ccc(Cn2ccc3c4c(N)nc(NC5CC5)nc4ccc32)cc1", "ASSIGNED_CATEGORY": "active"}
{"MOL_SMILES": "O=C(Cc1ccc(-c2ccc(OCCN3CCOCC3)cc2)cn1)NCc1ccccc1", "ASSIGNED_CATEGORY": "active"}
{"MOL_SMILES": "Nc1ccccc1NC(=O)c1ccc(CNC(=O)OCc2cccnc2)cc1", "ASSIGNED_CATEGORY": "active"}
{"MOL_SMILES": "Cc1ccc(C(=O)Nc2cccc(C(F)(F)F)c2)cc1-c1ccc2nc(NCCN3CCOCC3)ncc2c1", "ASSIGNED_CATEGORY": "active"}
{"MOL_SMILES": "O=C(NC1CCNCC1)c1[nH]ncc1NC(=O)c1c(Cl)cccc1Cl", "ASSIGNED_CATEGORY": "active"}
{"MOL_SMILES": "CC=C1NC(=O)[C@H]2CSSCCC=C[C@H](CC(=O)N[C@H](C(C)C)C(=O)N2)OC(=O)[C@H](C(C)C)NC1=O", "ASSIGNED_CATEGORY": "active"}
{"MOL_SMILES": "CN(c1ncccc1CNc1nc(Nc2ccc3c(c2)CC(=O)N3)ncc1C(F)(F)F)S(C)(=O)=O", "ASSIGNED_CATEGORY": "active"}
{"MOL_SMILES": "O=C(O)CO.[NH2-].[NH2-].[Pt+2]", "ASSIGNED_CATEGORY": "inactive"}
{"MOL_SMILES": "Cc1ccc(-c2ncn(-c3ccc(Nc4nccc(-c5cccc(N6CCOCC6)c5)n4)cc3)n2)cn1", "ASSIGNED_CATEGORY": "active"}

###

Experiment: Quantitative High-Throughput drug screen in 47 multiple myeloma cell lines against the NCATS MIPE library collection: MM1R_ATCC cell viability assay (AID 1918981); also: nearly all actives have a fitted effect of over 35% in size; also: potency is read from the fitted curve at half-maximal effect
Details: MM1R multiple myeloma cells, CellTiter-Glo viability, 48 h; series mostly up to 45.8 µM
Results filed as inconclusive are left out. The source made the active and inactive calls. Calls follow the shape of the dose curve; as a rule, active = well fitted cell-killing curve with a large enough effect; inconclusive = small, poorly fitted or top-dose-only effect, or effect the other way; inactive = no such curve, though single readings can be large or run the other way.
OUTCOME_MEASURE: Potency

{"MOLECULE": "Cc1ccc(C(=O)Nc2ccc(CN3CCN(C)CC3)c(C(F)(F)F)c2)cc1C#Cc1cnc2cccnn12", "READING": "3.32 µM (active)"}
{"MOLECULE": "CCN(CC)CCNC(=O)c1ccc2nc(-c3ccccc3)c(-c3ccc(CN4CCC(n5c(=O)[nH]c6ccccc65)CC4)cc3)nc2c1", "READING": "20.9 µM (active)"}
{"MOLECULE": "COc1cc(C)c(Sc2cnc(NC(=O)c3ccc(CNC(C)C(C)C)cc3)s2)cc1C(=O)N1CCN(C(C)=O)CC1 (centres undefined)", "READING": "14.8 µM (active)"}
{"MOLECULE": "c1nc2nc(Nc3ccc(N4CCOCC4)cc3)nc(NC3CCCCC3)c2[nH]1", "READING": "14.8 µM (active)"}
{"MOLECULE": "Cn1cncc1[C@@](N)(c1ccc(Cl)cc1)c1ccc2c(c1)c(-c1cccc(Cl)c1)cc(=O)n2C", "READING": "23.5 µM (active)"}
{"MOLECULE": "N#Cc1c(O)c2c(-c3ccc(-c4ccccc4O)cc3)csc2[nH]c1=O", "READING": "inactive"}
{"MOLECULE": "CN1CCN(c2cc(C(=O)Nc3ccc4c(c3)-c3c(c(C(N)=O)nn3-c3ccc(F)cc3)CC4)c(Cl)cn2)CC1", "READING": "20.9 µM (active)"}
{"MOLECULE": "COc1cc2c(NC3CCN(C(C)C)CC3)nc(C3CCCCC3)nc2cc1OCCCN1CCCC1", "READING": "6.62 µM (active)"}
{"MOLECULE": "COc1ccc(-n2nc(C(N)=O)c3c2C(=O)N(c2ccc(N4CCCCC4=O)cc2)CC3)cc1", "READING": "inactive"}

###

Assay: Quantitative High-Throughput drug screen in 47 multiple myeloma cell lines against the NCATS MIPE library collection: KMS27_JCRB cell viability assay (AID 1918970); also: potency is read from the fitted curve at half-maximal effect; nearly all actives have a fitted effect of over 30% in size
Conditions: KMS27 myeloma cells, CellTiter-Glo ATP viability, 48 h; series mostly up to 45.8 µM
Source text: PI: Beverly A. Mock Ph.D. Laboratory of Cancer Biology and Genetics, Center for Cancer Research, National Cancer Institute, National Institute of Health, Bethesda, Maryland […] 5; Detector; 425V; Luminescence; Viewlux PerkinElmer. […] 1. […] Briefly, the corresponding myeloma cell lines were screened in 1,536-well plates with 500 cells, 5-uL per well for inhibition of cell viability (assessed by measuring ATP levels with CellTiterGlo). […]
Inconclusive results are not listed. Active and inactive are the calls of the source. Calls follow the shape of the dose curve; as a rule, active = well fitted cell-killing curve with a large enough effect; inconclusive = small, poorly fitted or top-dose-only effect, or effect the other way; inactive = no such curve, though single readings can be large or run the other way.
OUTCOME_MEASURE: Potency

{"MOLECULE": "CC1(C)OC2=C(C(=O)c3ccccc3C2=O)[C@H](NCc2ccccc2)[C@H]1O", "OUTCOME_MEASURE": "Potency", "READING": "1180 nM (active)"}
{"MOLECULE": "CN(C)Cc1c(C(=O)NCCOc2ccc(C(=O)NO)cc2)oc2ccccc12", "OUTCOME_MEASURE": "Potency", "READING": "264 nM (active)"}
{"MOLECULE": "O=C(NC1CCNCC1)c1[nH]ncc1NC(=O)c1c(Cl)cccc1Cl", "OUTCOME_MEASURE": "Potency", "READING": "526 nM (active)"}
{"MOLECULE": "Cc1c(NC(=O)OC[C@@H]2COCCN2)cn2ncnc(Nc3ccc4c(cnn4Cc4cccc(F)c4)c3)c12", "OUTCOME_MEASURE": "Potency", "READING": "20900 nM (active)"}
{"MOLECULE": "CC(C)c1cnn2c(NCc3ccccc3)cc(N[C@@H](CO)[C@H](O)CO)nc12", "OUTCOME_MEASURE": "Potency", "READING": "209 nM (active)"}
{"MOLECULE": "CC(C)[C@H](C(=O)Nc1ccc(C(=O)NO)cc1)c1ccccc1", "OUTCOME_MEASURE": "Potency", "READING": "2090 nM (active)"}
{"MOLECULE": "Fc1cc(-c2cccc3ncc(-c4cnn(C5CCNCC5)c4)nc23)cc(F)c1CN1CCOCC1", "OUTCOME_MEASURE": "Potency", "READING": "8330 nM (active)"}
{"MOLECULE": "CC1(C)CC(=O)c2c(C(F)(F)F)nn(-c3ccc(C(N)=O)c(NC4CCC(OC(=O)CN)CC4)c3)c2C1 (centres undefined)", "OUTCOME_MEASURE": "Potency", "READING": "74.3 nM (active)"}

###

Test: qHTS of pediatric cancer cell lines to identify multiple opportunities for drug repurposing: Confirmatory screen for A673 cells (AID 1347110);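 also: potency is read from the fitted curve at half-maximal effect; cells exposed to compound for 48 h before the viability read; nearly all actives have a fitted effect of over 65% in size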
Settings: A673 Ewing sarcoma cell viability; series mostly up to 45.9 µM
Results filed as inconclusive are left out. Calls of active or inactive are those of the source. The call rests on the fitted dose curve; in most records, active means well fitted cell-killing curve with a large enough effect; inconclusive means small, poorly fitted or top-dose-only effect; inactive means flat fitted curve, though single readings scatter.
Each entry below carries its reported Potency.

{"MOL_SMILES": "Cc1c(NC(=O)OC[C@@H]2COCCN2)cn2ncnc(Nc3ccc4c(cnn4Cc4cccc(F)c4)c3)c12", "Potency": "18500 nM (active)"}
{"MOL_SMILES": "C=CC(=O)Nc1cc2c(Nc3ccc(F)c(Cl)c3)ncnc2cc1C#CC(C)(C)N1CCN(C)CC1", "Potency": "4270 nM (active)"}
{"MOL_SMILES": "CC(C)(C)c1cc(NC(=O)Nc2ccc(-c3cn4c(n3)sc3cc(OCCN5CCOCC5)ccc34)cc2)no1", "Potency": "585 nM (active)"}
{"MOL_SMILES": "COC(=O)[C@]12CCC(C)(C)C[C@@H]1[C@@H]1C(=O)C=C3[C@@]4(C)C=C(C#N)C(=O)C(C)(C)[C@@H]4CC[C@@]3(C)[C@]1(C)CC2", "Potency": "1650 nM (active)"}

###

Assay: Quantitative High-Throughput drug screen in 47 multiple myeloma cell lines against the NCATS MIPE library collection: PE2_PLB cell viability assay (AID 1919869); also: nearly all actives have a fitted effect of over 35% in size
Conditions: PE2_PLB myeloma cells viability, ATP luminescence, 48 h; series mostly up to 45.8 µM
Records with an inconclusive call do not appear. Active and inactive are the calls of the source. Calls follow the shape of the dose curve; as a rule, active = well fitted cell-killing curve with a large enough effect; inconclusive = small, poorly fitted or top-dose-only effect, or effect the other way; inactive = no such curve, though single readings can be large or run the other way.
Outcomes: active, inactive

{"COMPOUND": "CN(c1ncccc1CNc1nc(Nc2ccc3c(c2)CC(=O)N3)ncc1C(F)(F)F)S(C)(=O)=O", "ASSIGNED_CATEGORY": "active"}
{"COMPOUND": "CC(C)c1cnn2c(NCc3ccccc3)cc(N[C@@H](CO)[C@H](O)CO)nc12", "ASSIGNED_CATEGORY": "active"}
{"COMPOUND": "CCCCOc1c(C(=O)c2c(F)cc(C)cc2F)cnc2n[nH]cc12", "ASSIGNED_CATEGORY": "active"}
{"COMPOUND": "Cc1cnc(Nc2ccc(F)cc2Cl)nc1-c1c[nH]c(C(=O)N[C@H](CO)c2cccc(Cl)c2)c1", "ASSIGNED_CATEGORY": "active"}
{"COMPOUND": "CC1COC2(CCN(c3nc(=O)c4cc(C(F)(F)F)cc([N+](=O)[O-])c4s3)CC2)O1 (stereo not given)", "ASSIGNED_CATEGORY": "inactive"}
